Tested on: gastric mucosal leasion
TEST PROTOCOL: Cytoprotective action (gastric mucosal lesion by necrotizing agent 0.4N HCl+50% EtOH)
Assay type: in vivo, Male Donryu rats
COND: Rattus norvegicus, po; 10 mg/kg P.O., 30 minutes before 5 ml/kg 0.4N HCl+50% EtOH; stomach taken 1 hour after; read-out: Repression % (inhibition % of total area of gastric mucosal leasion vs control)
Quick rule for you: inhibition in vivo at 10 mg/kg at 60% or higher means fulfilled, lower means not fulfilled.

These recorded examples may help you get a feel for the data.
**Q:** I'd appreciate it if you could say whether O=C(CSCc1ccco1)NCCCOc1cccc(CN2CCCCC2)c1 has inhibition in vivo at 10 mg/kg at least equal to 60%.
**A:** fulfilled

**Q:** I'd appreciate it if you could say whether O=C(CS(=O)(=O)Cc1ccco1)NCCCOc1cccc(CN2CCCCC2)c1 has inhibition in vivo at 10 mg/kg at least equal to 60%.
**A:** fulfilled

**Q:** I'd appreciate it if you could say whether O=C(CSCc1cccs1)NCCCOc1cccc(CN2CCCCC2)c1 has inhibition in vivo at 10 mg/kg at least equal to 60%.
**A:** not fulfilled

Next:
**Q:** I'd appreciate it if you could say whether NC(N)=Nc1nc(CSCCNC(=O)CSCc2ccc3ccccc3c2)cs1 has inhibition in vivo at 10 mg/kg at least equal to 60%.
**A:** not fulfilled

**Q:** I'd appreciate it if you could say whether O=C(CSCc1ccco1)NCCCOc1cc(CN2CCCCC2)ccn1 has inhibition in vivo at 10 mg/kg at least equal to 60%.
**A:** not fulfilled

----------
TARGET OR TEST SYSTEM: Histamine H2-receptor (Cavia porcellus)
Construct: the right atrium was isolated rapidly; from tissue; host or cells: guinea pig right atrium (isolated organ)
Sequence (P47747 whole entry): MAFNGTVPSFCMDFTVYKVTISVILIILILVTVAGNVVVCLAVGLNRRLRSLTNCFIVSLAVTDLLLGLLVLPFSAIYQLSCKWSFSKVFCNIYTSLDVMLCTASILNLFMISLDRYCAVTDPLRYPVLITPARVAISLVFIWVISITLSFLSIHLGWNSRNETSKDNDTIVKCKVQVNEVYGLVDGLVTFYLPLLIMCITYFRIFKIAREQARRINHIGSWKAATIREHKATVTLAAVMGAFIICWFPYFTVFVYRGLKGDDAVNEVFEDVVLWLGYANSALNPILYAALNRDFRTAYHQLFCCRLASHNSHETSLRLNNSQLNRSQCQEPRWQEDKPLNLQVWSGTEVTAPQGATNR
TEST PROTOCOL: Histamine H2-receptor antagonistic action (isolated right atrium, histamine response)
COND: isolated guinea-pig right atrium, 32° C., tested compound 1×10^-6 M or 1×10^-7 M, Van Rossum method, read-out: pA2 (converted)
Each item that follows carries a reported Kb.
Enter your answer as a number in nM; do not include the unit.

**Q:** Record request: Kb value, item CC1CCCN(Cc2cccc(OCCCNC(=O)CS(=O)(=O)Cc3ccoc3)c2)C1 (stereo not drawn) [Compound 73]
**A:** 50.1

**Q:** Record request: Kb value, item COc1ccc(CSCC(=O)NCCCOc2cccc(CN3CCCCC3)c2)cc1 [Compound 12]
**A:** 50.1

Next:
**Q:** Record request: Kb value, item O=C(CSCc1ccc(C(=O)O)cc1)NCCCOc1cccc(CN2CCCCC2)c1 [Compound 48]
**A:** 31.6

**Q:** Record request: Kb value, item O=C(CSCc1ccc(Cl)s1)NCCCOc1cccc(CN2CCCCC2)c1 [Compound 113]
**A:** 25.1

**Q:** Record request: Kb value, item NC(N)=Nc1nc(CSCCNC(=O)CSCc2cccs2)cs1 [Compound 106]
**A:** 200

**Q:** Record request: Kb value, item Cc1ccc(CSCC(=O)NCCCOc2cccc(CN3CCCCC3)c2)o1 [Compound 69]
**A:** 3.98

**Q:** Record request: Kb value, item O=C(CSCC1CCCCC1)NCCCOc1cccc(CN2CCCCC2)c1 [Compound 16]
**A:** 12.6

**Q:** Record request: Kb value, item NC(N)=Nc1nc(CSCCNC(=O)CSCc2ccccc2)cs1 [Compound 105]
**A:** 79.4

**Q:** Record request: Kb value, item NC(N)=Nc1nc(CSCCNC(=O)CSCc2ccoc2)cs1 [Compound 104]
**A:** 200
